# Assay info: NCI Yeast Anticancer Drug Screen. Data for the cln2 rad14 strain (AID 165);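 note: 0% = growth equal to vehicle treated cultures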
# Assay conditions: S. cerevisiae cln2 rad14 strain, at 50.0 µM, active compounds read high
The panel holds about 79,000 compounds, 15% with a hit somewhere; the sample as a whole holds those more often. Calls of active or inactive are those of the source. Cut-off read from the data, not from the text of the source: active = growth inhibition above about 70%; inactive = the rest.
Endpoint name: growth inhibition

Request: // Input: CC1OC(Oc2c(-c3ccc(O)c(O)c3)oc3cc(O)cc(O)c3c2=O)C(O)C(O)C1O (configuration not stated) . Output its growth inhibition only.
Response: 8.6% (inactive)

Request: // Input: CCOc1ccc2[nH]c(=S)sc2c1 . Output its growth inhibition only.
Response: 15.5% (inactive)

Request: // Input: COc1ccc(OC)c(/C=C2\CCc3ccccc3C2=O)c1 . Output its growth inhibition only.
Response: 7.4% (inactive)

Request: // Input: CCCCNC1(C#N)CCN(Cc2ccccc2)CC1 . Output its growth inhibition only.
Response: 6.75% (inactive)

Request: // Input: CCOC(=O)c1cc(/C=C/c2cccc(Cl)c2)on1 . Output its growth inhibition only.
Response: 26.1% (inactive)

Request: // Input: CCOC(=O)CSc1c([N+](=O)[O-])ncn1C . Output its growth inhibition only.
Response: 17.3% (inactive)

Request: // Input: OCC1OC(OC2C(O)C(CO)OC2(CO)OC2OC(CO)C(O)C(O)C2O)C(O)C(O)C1O (configuration not stated) . Output its growth inhibition only.
Response: -3.15% (inactive)

Request: // Input: O=C1C=C(O)C(=O)C=C1O . Output its growth inhibition only.
Response: 0.4% (inactive)

Request: // Input: COCCOCCCl . Output its growth inhibition only.
Response: -7.95% (inactive)

Request: // Input: O=C(NCCNC(=O)c1ccc(Cl)cc1Cl)c1ccc(Cl)cc1Cl . Output its growth inhibition only.
Response: -42.2% (inactive)

Request: // Input: CC(=O)OC1CC2C(C)(C)OC3CC(=O)OCC32C2CCC3(C)C(=CCC3c3ccoc3)C12C (configuration not stated) . Output its growth inhibition only.
Response: 17.8% (inactive)

Request: // Input: CC(=O)NC(N)=S . Output its growth inhibition only.
Response: -3.05% (inactive)

Request: // Input: O=C(O)C(Cc1ccccc1)C(=O)O . Output its growth inhibition only.
Response: -33% (inactive)

Request: // Input: O=C(Cc1nc2ccc([N+](=O)[O-])cc2nc1CC(=O)c1cccnc1)c1cccnc1 . Output its growth inhibition only.
Response: 15.2% (inactive)

Request: // Input: O=S(=O)(O)c1ccc(O)c2ccccc12 . Output its growth inhibition only.
Response: -30.1% (inactive)

Request: // Input: Nc1ccc(NC(=O)c2cccc(N)c2)cc1 . Output its growth inhibition only.
Response: -7.8% (inactive)

Request: // Input: COc1ccccc1N=Nc1c(O)ccc2cc(S(=O)(=O)O)ccc12 . Output its growth inhibition only.
Response: 9.95% (inactive)

Request: // Input: CC1(C)N=C(N)N=C(N)N1c1cccc(Br)c1 . Output its growth inhibition only.
Response: 7.15% (inactive)

Request: // Input: CC1SC(N)=NC1=O (configuration not stated) . Output its growth inhibition only.
Response: -2.15% (inactive)

Request: // Input: CN(C)C(=O)Oc1cccc([N+](C)(C)C)c1 . Output its growth inhibition only.
Response: -60.9% (inactive)

Request: // Input: COc1ccc(-c2cc3c(nn2)-c2ccccc2C3=O)cc1 . Output its growth inhibition only.
Response: -10.4% (inactive)

Request: // Input: Cc1ccc(S(=O)(=O)O)c(C)c1 . Output its growth inhibition only.
Response: 19.9% (inactive)

Request: // Input: CCOC(=O)C/C(C)=N\O . Output its growth inhibition only.
Response: 8.45% (inactive)

Request: // Input: COc1ccc(/C=C/c2cccc[n+]2C)cc1 . Output its growth inhibition only.
Response: 0.55% (inactive)

Request: // Input: CC(C)C1CCCCC1O (configuration not stated) . Output its growth inhibition only.
Response: -35.5% (inactive)

Request: // Input: CC(C)=NNc1ccc([N+](=O)[O-])cc1[N+](=O)[O-] . Output its growth inhibition only.
Response: 25.4% (inactive)

Request: // Input: Cc1ccc(O)c(C(=O)c2ccccc2)c1 . Output its growth inhibition only.
Response: -8.8% (inactive)
